Recorded measurements of pIC50, one per entry
TARGET_ENTITY: Tyrosine-protein phosphatase non-receptor type 1 [1-298] (Homo sapiens, UniProt P18031)
Construct: 1-298
Sequence (P18031 1-298): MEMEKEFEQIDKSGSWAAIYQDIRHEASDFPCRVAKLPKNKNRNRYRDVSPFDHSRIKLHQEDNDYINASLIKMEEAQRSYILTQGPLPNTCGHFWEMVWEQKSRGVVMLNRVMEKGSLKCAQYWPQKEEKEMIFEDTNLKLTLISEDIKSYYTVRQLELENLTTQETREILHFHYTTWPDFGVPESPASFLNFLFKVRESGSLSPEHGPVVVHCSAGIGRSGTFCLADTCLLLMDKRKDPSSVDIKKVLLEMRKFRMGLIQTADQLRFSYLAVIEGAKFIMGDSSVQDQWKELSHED
ASSAY_NOTES: Phosphatase Inhibition Assay
pIC50: −log10 of the molar value.
READOUT_NAME: pIC50

| MOLECULE | READOUT_NAME | RECORDED_MEASUREMENT |
| --- | --- | --- |
| O=C1CC(c2ccc(C[C@H](NS(=O)(=O)c3ccc(C(F)(F)F)cc3Br)c3nc4ccccc4[nH]3)cc2)S(=O)(=O)N1 (some centres not stated) | pIC50 | 6.77 |
| O=C1CC(c2ccc(C[C@H](NS(=O)(=O)c3ccccc3)c3nc4ccccc4[nH]3)cc2Cl)S(=O)(=O)N1 (some centres not stated) | pIC50 | 7.12 |
| O=C1CC(c2ccc(C[C@H](NS(=O)(=O)c3ccccc3)c3nc4ccccc4[nH]3)cc2Br)S(=O)(=O)N1 (some centres not stated) | pIC50 | 6.77 |
| O=C1CC(c2ccc(C[C@H](NS(=O)(=O)c3cc(C(F)(F)F)ccc3C(F)(F)F)c3nc4ccccc4[nH]3)cc2)S(=O)(=O)N1 (some centres not stated) | pIC50 | 6.68 |
| O=C1CC(c2ccc(C[C@H](NS(=O)(=O)c3ccc(Br)c(C(F)(F)F)c3)c3nc4ccccc4[nH]3)cc2)S(=O)(=O)N1 (some centres not stated) | pIC50 | 7.40 |
| C#Cc1cc(C[C@H](NS(=O)(=O)c2ccccc2)c2nc3ccccc3[nH]2)ccc1C1CC(=O)NS1(=O)=O (some centres not stated) | pIC50 | 6.92 |
| N#Cc1cc(C[C@H](NS(=O)(=O)c2ccccc2)c2nc3ccccc3[nH]2)ccc1C1CC(=O)NS1(=O)=O (some centres not stated) | pIC50 | 7.51 |
| O=C1CC(c2ccc(C[C@H](NS(=O)(=O)c3cccc(Oc4ccccc4)c3)c3nc4ccccc4[nH]3)cc2)S(=O)(=O)N1 (some centres not stated) | pIC50 | 6.96 |
| O=C1CC(c2ccc(C[C@H](NC(=O)C(F)(F)c3ccccc3)c3nc4ccccc4[nH]3)cc2)S(=O)(=O)N1 (some centres not stated) | pIC50 | 6.70 |
| O=C1CC(c2ccc(C[C@H](NS(=O)(=O)c3ccccc3Cl)c3nc4ccccc4[nH]3)cc2)S(=O)(=O)N1 (some centres not stated) | pIC50 | 6.80 |
| O=C1CC(c2ccc(C[C@H](NS(=O)(=O)c3cccc(F)c3)c3nc4ccccc4[nH]3)cc2)S(=O)(=O)N1 (some centres not stated) | pIC50 | 7.18 |
| CC(=O)N[C@@H](Cc1ccc(C2CC(=O)NS2(=O)=O)cc1)c1nc2ccccc2[nH]1 (some centres not stated) | pIC50 | 5.59 |

Data provenance: BindingDB's records for doi:10.1074/jbc.M607913200
